- Tested Target: bovine cardiac myosin (Bos taurus (Bovine))
- Sequence (Q9BE39 whole entry): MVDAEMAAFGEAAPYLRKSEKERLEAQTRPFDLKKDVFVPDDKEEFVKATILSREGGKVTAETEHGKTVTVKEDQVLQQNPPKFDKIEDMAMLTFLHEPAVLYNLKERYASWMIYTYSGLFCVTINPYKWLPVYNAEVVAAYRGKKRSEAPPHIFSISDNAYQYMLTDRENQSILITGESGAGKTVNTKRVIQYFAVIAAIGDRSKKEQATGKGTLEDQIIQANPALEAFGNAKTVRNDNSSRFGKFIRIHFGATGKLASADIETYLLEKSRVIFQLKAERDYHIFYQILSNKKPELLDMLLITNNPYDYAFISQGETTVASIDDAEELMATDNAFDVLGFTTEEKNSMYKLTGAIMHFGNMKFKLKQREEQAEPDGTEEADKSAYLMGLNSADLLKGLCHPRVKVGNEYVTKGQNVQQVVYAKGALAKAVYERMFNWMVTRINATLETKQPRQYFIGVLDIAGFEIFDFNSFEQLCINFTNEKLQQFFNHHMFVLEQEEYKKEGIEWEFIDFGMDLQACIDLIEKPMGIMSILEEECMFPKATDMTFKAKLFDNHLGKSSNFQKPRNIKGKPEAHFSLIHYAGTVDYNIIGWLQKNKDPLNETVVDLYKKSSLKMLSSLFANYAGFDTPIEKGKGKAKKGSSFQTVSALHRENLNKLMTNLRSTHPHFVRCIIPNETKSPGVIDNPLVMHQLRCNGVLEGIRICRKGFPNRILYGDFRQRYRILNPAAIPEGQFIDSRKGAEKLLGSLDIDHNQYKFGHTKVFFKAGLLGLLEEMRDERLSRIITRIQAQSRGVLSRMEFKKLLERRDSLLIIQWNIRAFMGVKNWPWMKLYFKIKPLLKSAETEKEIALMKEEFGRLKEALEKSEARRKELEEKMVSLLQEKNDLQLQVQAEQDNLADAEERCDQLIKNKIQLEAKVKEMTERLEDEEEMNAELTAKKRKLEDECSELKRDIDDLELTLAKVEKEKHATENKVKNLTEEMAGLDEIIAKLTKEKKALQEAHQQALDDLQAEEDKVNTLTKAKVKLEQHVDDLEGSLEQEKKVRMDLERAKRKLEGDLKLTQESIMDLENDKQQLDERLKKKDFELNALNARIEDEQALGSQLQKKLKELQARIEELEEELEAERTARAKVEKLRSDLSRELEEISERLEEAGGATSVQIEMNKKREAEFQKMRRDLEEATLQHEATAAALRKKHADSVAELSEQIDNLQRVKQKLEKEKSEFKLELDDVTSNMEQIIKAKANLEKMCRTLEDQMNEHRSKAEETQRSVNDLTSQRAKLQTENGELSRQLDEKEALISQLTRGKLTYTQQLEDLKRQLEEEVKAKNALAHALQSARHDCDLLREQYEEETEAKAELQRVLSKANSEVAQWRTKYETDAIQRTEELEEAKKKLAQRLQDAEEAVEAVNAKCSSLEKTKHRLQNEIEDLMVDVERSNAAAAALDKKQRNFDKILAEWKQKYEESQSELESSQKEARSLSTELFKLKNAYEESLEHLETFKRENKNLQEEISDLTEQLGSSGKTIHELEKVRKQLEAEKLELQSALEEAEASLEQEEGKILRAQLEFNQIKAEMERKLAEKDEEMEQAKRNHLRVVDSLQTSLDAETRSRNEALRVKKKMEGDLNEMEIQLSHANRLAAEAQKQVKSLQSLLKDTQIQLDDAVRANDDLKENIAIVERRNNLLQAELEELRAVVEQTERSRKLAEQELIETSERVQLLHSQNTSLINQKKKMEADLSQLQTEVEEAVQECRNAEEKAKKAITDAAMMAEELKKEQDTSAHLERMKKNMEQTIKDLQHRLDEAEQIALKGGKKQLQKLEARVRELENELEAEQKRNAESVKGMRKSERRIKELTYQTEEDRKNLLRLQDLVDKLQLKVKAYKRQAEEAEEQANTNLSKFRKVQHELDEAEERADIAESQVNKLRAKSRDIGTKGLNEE
- Sequence (P85100 whole entry partner): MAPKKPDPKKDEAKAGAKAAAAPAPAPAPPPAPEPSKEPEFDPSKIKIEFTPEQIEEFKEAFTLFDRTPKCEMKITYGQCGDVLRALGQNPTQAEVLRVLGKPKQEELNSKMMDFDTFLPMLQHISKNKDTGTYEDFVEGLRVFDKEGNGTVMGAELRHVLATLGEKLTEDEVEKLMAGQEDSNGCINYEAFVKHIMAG
- Sequence (Q3SZE5 whole entry partner): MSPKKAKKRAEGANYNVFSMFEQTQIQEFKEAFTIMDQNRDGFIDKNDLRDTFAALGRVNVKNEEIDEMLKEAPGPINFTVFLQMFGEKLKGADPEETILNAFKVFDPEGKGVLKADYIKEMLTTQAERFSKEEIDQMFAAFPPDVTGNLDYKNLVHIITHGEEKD
- Test Protocol: Myosin inhibitory potency: PK/LDH-coupled ATPase assay on bovine skinned cardiac myofibrils
- Assay Setup: pCa=6.25, 50 μM ATP, 25° C., read-out: myosin inhibition activity IC50
- Description: The average rates of ATPase inhibition, and the IC50 values are determined by Victor Nivo multimode plate reader (PerkinElmer, USA). As to the assays background, a biochemical assay couples the ATPase activity of bovine cardiac myosin to an enzymatic coupling system consisting of pyruvate kinase and lactate dehydrogenase (PK/LDH) and monitoring the absorbance decrease of NADH (at 340 nm) as a function of time to measure the inhibitory ability of small molecule agents. […]
pIC50: −log10 of the molar value.
Mark TRUE for reported pIC50 of 6 or greater; mark FALSE for anything smaller.

- Molecule: "CC(=O)N1CC(c2cccc([C@@H](Nc3nc(=O)n(C4CCOCC4)c(=O)[nH]3)C(F)F)c2)C1 [Example 260]"
  Category: "TRUE"
- Molecule: "CC(n1c(=O)nc(N[C@@H](C)C2CCCCC2)[nH]c1=O)C(F)(F)F (stereo partly shown) [Example 52]"
  Category: "FALSE"
- Molecule: "C[C@H](Nc1nc(=O)n(C2CCOCC2)c(=O)[nH]1)c1ccc(C(C)(C)C)cc1 [Example 160]"
  Category: "FALSE"
- Molecule: "Cc1nccn1-c1cccc([C@H](C)Nc2nc(=O)n(C3CCOCC3)c(=O)[nH]2)c1 [Example 203]"
  Category: "FALSE"
- Molecule: "C[C@H](Nc1nc(=O)n(C2CCOCC2)c(=O)[nH]1)c1cccc(-n2ccnc2)c1 [Example 200]"
  Category: "FALSE"
- Molecule: "C[C@H](Nc1nc(=O)n(C2CCOCC2)c(=O)[nH]1)c1ccccc1Cl [Example 159]"
  Category: "TRUE"
- Molecule: "CC(O)c1cccc([C@@H](Nc2nc(=O)n(C(C)C)c(=O)[nH]2)C(F)F)c1 (stereo partly shown) [Example 267]"
  Category: "TRUE"
- Molecule: "C[C@H](Nc1nc(=O)n(C2CCOCC2)c(=O)[nH]1)c1cccc(C(O)C2CC2)c1 (stereo partly shown) [Example 250]"
  Category: "FALSE"

---

- Tested Target: bovine cardiac myosin (Bos taurus (Bovine))
- Test Protocol: Myosin inhibitory potency: PK/LDH-coupled ATPase assay on bovine skinned cardiac myofibrils
- Assay Setup: pCa=6.25, 50 μM ATP, 25° C., read-out: myosin inhibition activity IC50
- Experimental: The average rates of ATPase inhibition, and the IC50 values are determined by Victor Nivo multimode plate reader (PerkinElmer, USA). As to the assays background, a biochemical assay couples the ATPase activity of bovine cardiac myosin to an enzymatic coupling system consisting of pyruvate kinase and lactate dehydrogenase (PK/LDH) and monitoring the absorbance decrease of NADH (at 340 nm) as a function of time to measure the inhibitory ability of small molecule agents. […]
pIC50: −log10 of the molar value.
Mark condition met for reported pIC50 of 6 or greater; mark condition not met for anything smaller.

- Compound: "C[C@H](Nc1nc(=O)n(C2CCN(C3CC3)CC2)c(=O)[nH]1)C1CCCCC1"
  Category: "condition not met"
- Compound: "Cc1cccc([C@H](C)Nc2nc(=O)n(CC(F)(F)F)c(=O)[nH]2)c1"
  Category: "condition not met"
- Compound: "C[C@H](Nc1nc(=O)n(C2CCOCC2)c(=O)[nH]1)c1cccc(-n2cccn2)c1"
  Category: "condition not met"
- Compound: "Cc1cccc([C@@H](Nc2nc(=O)n(C3CCOCC3)c(=O)[nH]2)C2CC2)c1"
  Category: "condition met"
- Compound: "C[C@H](Nc1nc(=O)n(C2CCOCC2)c(=O)[nH]1)c1cccc(C2=CCN(C(=O)OC(C)(C)C)CC2)c1"
  Category: "condition not met"
- Compound: "C[C@H](Nc1nc(=O)n([C@H](C)C(F)(F)F)c(=O)[nH]1)c1cccc(F)c1"
  Category: "condition not met"
- Compound: "CC(Nc1nc(=O)n(C2CCOCC2)c(=O)[nH]1)c1cccc(-n2cccn2)c1 (centres unmarked)"
  Category: "condition not met"
- Compound: "Cc1ccc(F)c([C@H](C)Nc2nc(=O)n([C@@H](C)C(F)(F)F)c(=O)[nH]2)c1"
  Category: "condition not met"
- Compound: "C[C@H](Nc1nc(=O)n(C2CCOCC2)c(=O)[nH]1)c1cccc(OC(F)(F)F)c1"
  Category: "condition met"
- Compound: "C[C@H](Nc1nc(=O)n(C(C2CC2)C(F)(F)F)c(=O)[nH]1)C1CCCCC1 (some centres unmarked)"
  Category: "condition met"
- Compound: "CC(=O)N1CC(c2cccc([C@H](C)Nc3nc(=O)n(C4CCOCC4)c(=O)[nH]3)c2)C1"
  Category: "condition met"
- Compound: "CC[C@H](Nc1nc(=O)n(C2CCOCC2)c(=O)[nH]1)C1CCCCC1"
  Category: "condition not met"
- Compound: "CC(Nc1nc(=O)n(C2CCNCC2)c(=O)[nH]1)c1cccc(C(F)(F)F)c1 (centres unmarked)"
  Category: "condition not met"
- Compound: "CC(C)n1c(=O)nc(N[C@@H](C)c2ccccc2)[nH]c1=O"
  Category: "condition not met"
- Compound: "COC(=O)c1ccc([C@H](C)Nc2nc(=O)n(C3CCOCC3)c(=O)[nH]2)cc1"
  Category: "condition not met"
- Compound: "Cc1cnn(-c2cccc([C@H](C)Nc3nc(=O)n(C4CCOCC4)c(=O)[nH]3)c2)c1"
  Category: "condition not met"
- Compound: "CC(Nc1nc(=O)n(C(C)C)c(=O)[nH]1)c1ccccc1O (centres unmarked)"
  Category: "condition not met"
- Compound: "Cc1ccc(F)c([C@H](C)Nc2nc(=O)n([C@H](C3CC3)C(F)(F)F)c(=O)[nH]2)c1"
  Category: "condition met"
- Compound: "Cc1cccc(C(C)Nc2nc(=O)n(C3CCN(C(=O)OC(C)(C)C)CC3)c(=O)[nH]2)c1 (centres unmarked)"
  Category: "condition not met"
- Compound: "CC(Nc1nc(=O)n(C2CCOCC2)c(=O)[nH]1)c1cccc(Br)c1 (centres unmarked)"
  Category: "condition not met"

---

# DNAUC per record follows
- Test Protocol: Pharmacokinetic profiles in male SD rats (IV and PO)
- Type: in vivo, rat
- Assay Setup: IV 1 mg/kg, PO 5 mg/kg, route for this parameter not given
Quantity Measured: DNAUC (ng·h/mL)

- Molecule: "C[C@H](Nc1nc(=O)n(C2CCOCC2)c(=O)[nH]1)c1ccc(F)cc1Cl [Example 162]"
  Numeric Value: 4195.1
- Molecule: "C[C@H](Nc1nc(=O)n(C2CCOCC2)c(=O)[nH]1)c1cccc(C(F)(F)F)c1 [Example 252]"
  Numeric Value: 3959.8
- Molecule: "Cc1ccc([C@H](C)Nc2nc(=O)n(C3CCOCC3)c(=O)[nH]2)c(C)c1 [Example 168]"
  Numeric Value: 13412.2
- Molecule: "Cc1cc([C@H](C)Nc2nc(=O)n(C3CCOCC3)c(=O)[nH]2)ccc1F [Example 156]"
  Numeric Value: 5052.2
- Molecule: "C[C@H](Nc1nc(=O)n(C2CCOCC2)c(=O)[nH]1)c1ccc(Cl)c(Cl)c1 [Example 165]"
  Numeric Value: 11463.4
- Molecule: "C[C@H](Nc1nc(=O)n(C2CCOCC2)c(=O)[nH]1)c1cc(F)cc(Cl)c1 [Example 172]"
  Numeric Value: 7631.0
- Molecule: "Cc1cccc([C@H](C)Nc2nc(=O)n(C3CCOCC3)c(=O)[nH]2)c1 [Example 4]"
  Numeric Value: 2299.6
- Molecule: "C[C@H](Nc1nc(=O)n(C2CCOCC2)c(=O)[nH]1)c1ccc(F)cc1F [Example 10]"
  Numeric Value: 1724.7

---

- Tested Target: UniProtKB Q9BE39
- Test Protocol: Myosin inhibitory potency: PK/LDH-coupled ATPase assay on bovine skinned cardiac myofibrils
- Assay Setup: pCa=6.25, 50 μM ATP, 25° C., read-out: myosin inhibition activity IC50
pIC50: −log10 of the molar value.
Quantity Measured: pIC50

- Molecule: "COC[C@H](Nc1nc(=O)n(C(C)C)c(=O)[nH]1)c1cccc(C)c1 [Example 285]"
  Quantity Measured: "pIC50"
  Numeric Value: 6.29
- Molecule: "Cc1cccc([C@H](C)Nc2nc(=O)n([C@H]3CC[C@H](NC(=O)OC(C)(C)C)CC3)c(=O)[nH]2)c1 [Example 97]"
  Quantity Measured: "pIC50"
  Numeric Value: 5.89
- Molecule: "Cc1cccc([C@@H](Nc2nc(=O)n(C3CCOCC3)c(=O)[nH]2)C(F)(F)F)c1 [Example 279]"
  Quantity Measured: "pIC50"
  Numeric Value: 6.14
- Molecule: "O=c1nc(NCCC2CCCCC2)[nH]c(=O)n1C1CCOCC1 [Example 114]"
  Quantity Measured: "pIC50"
  Numeric Value: 4.85
- Molecule: "C[C@@H](Nc1nc(=O)n(C2CCOCC2)c(=O)[nH]1)c1ccc2c(c1)OC(F)(F)O2 [Example 318]"
  Quantity Measured: "pIC50"
  Numeric Value: 5.98
- Molecule: "C[C@H](Nc1nc(=O)n(C2CCOCC2)c(=O)[nH]1)c1cccc(Cl)c1 [Example 154]"
  Quantity Measured: "pIC50"
  Numeric Value: 6.43
- Molecule: "Cc1ccc(F)c([C@H](C)Nc2nc(=O)n([C@@H]3CCOC[C@@H]3F)c(=O)[nH]2)c1 [Example 313]"
  Quantity Measured: "pIC50"
  Numeric Value: 5.86
- Molecule: "CC(C)(C#N)c1cccc([C@@H](Nc2nc(=O)n(C3CCOCC3)c(=O)[nH]2)C(F)F)c1 [Example 268]"
  Quantity Measured: "pIC50"
  Numeric Value: 5.97
